# System: isolated guinea pig gallbladder
# assay-summary: Functional activity in isolated guinea pig gallbladder preparation
# Type: cell-based
# condition-parameters: Cavia porcellus, 3 × 10^-5 M test compound; expressed as % CCK-induced maximal response; read-out: % Contraction (3 × 10^-5 M)
Collected activation at 30 µM values appear next to each entry.
readout-type: activation at 30 µM (%)

compound	measure-unit	recorded-value
COc1ccc(N(C(=O)CN2C(=O)C(C)(CC(=O)Nc3ccccc3)C(=O)N(c3ccccc3)c3ccccc32)C(C)C)cc1 (stereo not shown)	%	64
COc1ccc(N(C(=O)CN2C(=O)C(Cc3n[nH]c4ccccc34)C(=O)N(c3ccncc3)c3ccccc32)C(C)C)cc1 (stereo not shown)	%	73
CC(C)N(C(=O)CN1C(=O)C(Cc2n[nH]c3cc(F)ccc23)C(=O)N(c2ccccc2)c2ccccc21)c1ccc(OC(F)(F)F)cc1 (stereo not shown)	%	73
COc1ccc(N(C(=O)CN2C(=O)C(Cc3n[nH]c4ccccc34)C(=O)N(c3ccccc3)c3cc(F)c(F)cc32)C(C)C)cc1 (stereo not shown)	%	102
COc1ccc(N(C(=O)CN2C(=O)C(Cc3n[nH]c4ncccc34)C(=O)N(c3ccccc3)c3ccccc32)C(C)C)cc1 (stereo not shown)	%	94
CC(C)N(C(=O)CN1C(=O)C(Cc2n[nH]c3ccccc23)C(=O)N(c2ccccc2)c2ccccc21)c1ccccc1 (stereo not shown)	%	99
COc1ccc(N(C(=O)CN2C(=O)C(Cc3n[nH]c4ccccc34)C(=O)N(c3cccnc3)c3ccccc32)C(C)C)cc1 (stereo not shown)	%	92
COc1ccc(N(C(=O)CN2C(=O)C(C)(Cc3n[nH]c4ccccc34)C(=O)N(c3ccccc3)c3ccccc32)C(C)C)cc1 (stereo not shown)	%	70
COc1ccc(N(C(=O)CN2C(=O)C(C)(Cc3cn(C)c4ccccc34)C(=O)N(c3ccccc3)c3ccccc32)C(C)C)cc1 (stereo not shown)	%	34
COc1ccc(N(C(=O)CN2C(=O)C(Cc3c[nH]c4ccccc34)C(=O)N(c3ccccc3)c3ccccc32)C(C)C)cc1 (stereo not shown)	%	71
CC(C)N(C(=O)CN1C(=O)C(C)(Cc2c[nH]c3ccccc23)C(=O)N(c2ccccc2)c2ccccc21)c1ccccc1 (stereo not shown)	%	76
CCOC(=O)c1cccc(NC(=O)CC2C(=O)N(CC(=O)N(c3ccccc3)C(C)C)c3ccccc3N(c3ccccc3)C2=O)c1 (stereo not shown)	%	64
COc1ccc(N(C(=O)CN2C(=O)C(CC(=O)Nc3ccccc3)C(=O)N(c3ccccc3)c3ccccc32)C(C)C)cc1 (stereo not shown)	%	55

* * *

Measured activation at 30 µM values are reported for all entries that follow.
# Test system: isolated guinea pig gallbladder
# assay-summary: Functional activity in isolated guinea pig gallbladder preparation
# Type: cell-based
# condition-parameters: Cavia porcellus, 3 × 10^-5 M test compound; expressed as % CCK-induced maximal response; read-out: % Contraction (3 × 10^-5 M)

compound	activation at 30 µM / %
O=C1C(Cc2n[nH]c3ccccc23)C(=O)N(c2ccccc2)c2ccccc2N1CC(=O)N(c1ccccc1)C1CC1 (stereo not shown)	77
COc1ccc(N(C(=O)CN2C(=O)C(Cc3n[nH]c4ccccc34)C(=O)N(c3ccsc3)c3ccccc32)C(C)C)cc1 (stereo not shown)	95
CC(C)N(C(=O)CN1C(=O)C(C)(Cc2cc3ccccc3[nH]2)C(=O)N(c2ccccc2)c2ccccc21)c1ccccc1 (stereo not shown)	3
COc1ccc(N(C(=O)CN2C(=O)C(Cc3cc4ccccc4[nH]3)(OC)C(=O)N(c3ccccc3)c3ccccc32)C(C)C)cc1 (stereo not shown)	66
